Target: GABAA receptor (α1β3γ2L), β3 subunit (Homo sapiens, UniProt P14867+P18507+P28472)
Sequence (P28472 26-473): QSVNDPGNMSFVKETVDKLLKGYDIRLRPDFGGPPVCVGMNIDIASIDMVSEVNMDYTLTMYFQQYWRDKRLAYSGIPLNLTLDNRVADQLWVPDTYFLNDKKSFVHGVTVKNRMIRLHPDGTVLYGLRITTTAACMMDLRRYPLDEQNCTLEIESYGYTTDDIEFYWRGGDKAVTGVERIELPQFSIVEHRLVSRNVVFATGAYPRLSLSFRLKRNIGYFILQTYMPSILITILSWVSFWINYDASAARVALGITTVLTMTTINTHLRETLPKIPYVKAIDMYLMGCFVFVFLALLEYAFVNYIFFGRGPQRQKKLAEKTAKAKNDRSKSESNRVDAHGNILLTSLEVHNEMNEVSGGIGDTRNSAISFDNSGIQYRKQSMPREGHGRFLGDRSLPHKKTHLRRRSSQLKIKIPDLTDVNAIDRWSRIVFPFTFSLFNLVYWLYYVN
Sequence (P14867 28-456): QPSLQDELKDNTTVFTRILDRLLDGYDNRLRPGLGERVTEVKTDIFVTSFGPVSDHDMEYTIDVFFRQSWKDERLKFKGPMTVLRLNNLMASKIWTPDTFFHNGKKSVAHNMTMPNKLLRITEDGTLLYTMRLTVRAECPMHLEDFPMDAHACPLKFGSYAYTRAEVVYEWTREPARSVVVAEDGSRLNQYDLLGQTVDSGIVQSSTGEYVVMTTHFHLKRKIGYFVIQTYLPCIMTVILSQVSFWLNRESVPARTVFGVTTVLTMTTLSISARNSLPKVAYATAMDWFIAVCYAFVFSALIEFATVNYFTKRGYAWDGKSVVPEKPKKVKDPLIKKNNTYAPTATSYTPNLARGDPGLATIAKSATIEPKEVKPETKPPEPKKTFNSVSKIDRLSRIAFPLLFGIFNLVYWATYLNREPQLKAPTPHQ
Sequence (P18507 40-475): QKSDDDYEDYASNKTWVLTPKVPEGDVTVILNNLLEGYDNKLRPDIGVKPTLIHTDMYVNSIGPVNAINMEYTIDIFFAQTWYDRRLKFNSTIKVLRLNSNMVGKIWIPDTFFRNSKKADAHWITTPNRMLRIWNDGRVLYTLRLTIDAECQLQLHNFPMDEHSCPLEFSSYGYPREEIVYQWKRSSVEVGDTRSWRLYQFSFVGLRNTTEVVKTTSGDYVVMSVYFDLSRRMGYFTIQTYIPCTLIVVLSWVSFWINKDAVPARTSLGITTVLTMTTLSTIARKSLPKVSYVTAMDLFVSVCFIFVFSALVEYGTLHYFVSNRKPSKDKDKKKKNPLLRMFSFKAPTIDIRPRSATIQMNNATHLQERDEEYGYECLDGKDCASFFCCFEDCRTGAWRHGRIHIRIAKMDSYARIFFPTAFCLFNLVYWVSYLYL
Assay: two-electrode voltage clamp
Type: cell-based
reported_metric: two-electrode voltage clamp; potentiation of EC5 GABA currents, reversed by naph

{"compound": "CCOC(=O)Nc1ccc(NCc2c(C)cc(C)cc2C)cc1N [AA29504]", "obs_value": "~ 1 μM"}
{"compound": "FC(F)OC(Cl)C(F)(F)F (centres unmarked) [Isoflurane]", "obs_value": "~ 1.5 mM"}
{"compound": "OCC(Cl)(Cl)Cl [2,2,2-Trichloroethanol]", "obs_value": "~ 2 mM"}
{"compound": "Cl/C(=C\\n1cncn1)c1ccc(Cl)cc1Cl [Loreclezole]", "obs_value": "~ 10 μM"}
{"compound": "CC(=O)[C@H]1CC[C@H]2[C@@H]3CC[C@H]4C[C@H](O)CC[C@]4(C)[C@H]3C(=O)C[C@]12C [Alphaxalone]", "obs_value": "~ 2 μM"}

The values you see were collected from paper PMC7006677.
